Tested on: HT29 colon
Assay: NCI-60 one-dose screen, 48 h (100 = growth as untreated, 0 = no growth, -100 = all killed)
Conditions: 10 µM
This is part of a sample that, as a whole, favours compounds with a hit. Of some 83,000 tested, about 20% had one in any assay.
Output true (1) for records whose growth is lower than 30%, false (0) for records at or above 30%.

Solved cases below.
>  <compound>
Cc1ccc(NC(=O)/C=N/O)cc1C

>  <class>
false (0)

$$$$
>  <compound>
N=C(N)c1ccc(-c2ccc(-c3cccs3)s2)nc1

>  <class>
true (1)

$$$$
>  <compound>
CCCCCCCOc1cccc(/C=C2/C(=O)N=C3SCCCN32)c1

>  <class>
false (0)

$$$$
>  <compound>
Cc1nc(Nc2nc3ccccc3o2)nc(-c2cccc([N+](=O)[O-])c2)c1C(=O)Nc1ccc(F)c(Cl)c1

>  <class>
true (1)

$$$$
>  <compound>
COC1OC2COC(c3ccccc3)OC2C(=O)C1NC(=O)c1ccccc1 (stereo unspecified)

>  <class>
false (0)

$$$$

Challenge: Quick check: does CCCCOCCOCCOCc1cc2c(cc1Br)OCO2 have growth under 30%?
Response given: false (0)

Challenge: Quick check: does Cc1ccc2nc(-c3ccc(OCC(=O)N=Nc4c(O)[nH]c5ccccc45)cc3)[nH]c2c1 have growth under 30%?
Response given: false (0)

Challenge: Quick check: does CCCCCCOc1ccc(/C=C/C(=O)c2ccc(B(O)O)cc2)cc1 have growth under 30%?
Response given: false (0)

Challenge: Quick check: does C/C(=N\NC(=S)N1CCCC1)c1ccccn1 have growth under 30%?
Response given: true (1)

Challenge: Quick check: does Oc1ccccc1-c1nnc(Cn2c(Cc3cccc4ccccc34)nc3ccccc32)o1 have growth under 30%?
Response given: false (0)

Challenge: Quick check: does Cc1cccc2c(Nc3ccc(NS(C)(=O)=O)cc3)c3ccc([N+](=O)[O-])cc3nc12 have growth under 30%?
Response given: true (1)

Challenge: Quick check: does Cc1ccc(/C(CS(=O)(=O)c2ccc(C)cc2)=N\O)cc1 have growth under 30%?
Response given: false (0)

Challenge: Quick check: does COc1cc(Cn2c(-c3ccccc3)c(Cl)c3c2-c2oncc2CC3)cc(OC)c1 have growth under 30%?
Response given: false (0)

Challenge: Quick check: does COc1ccc2c(=O)cc(C(Cl)(Cl)Cl)oc2c1 have growth under 30%?
Response given: true (1)

Challenge: Quick check: does CC(=O)Oc1ccc(C2=Cc3ccc(OC(C)=O)cc3OC2C)cc1 (stereo unspecified) have growth under 30%?
Response given: false (0)

Challenge: Quick check: does O=C(Nc1cccc(-c2nc3ccccc3[nH]2)c1)c1cccc(NC(=O)c2ccco2)c1 have growth under 30%?
Response given: true (1)

Challenge: Quick check: does COCCOC(=O)NC(=O)Nc1ccc(/C(=N/O)c2ccc(Cl)cc2)cc1 have growth under 30%?
Response given: true (1)

Challenge: Quick check: does Cc1[nH]nc2c(=S)[nH]c(=O)[nH]c12 have growth under 30%?
Response given: false (0)

Challenge: Quick check: does NS(=O)(=O)c1ccc(N2N=C(c3ccc(-c4ccccc4)cc3)CC2c2ccc(Cl)cc2)cc1 (stereo unspecified) have growth under 30%?
Response given: false (0)

Challenge: Quick check: does CC(=O)N(O)c1ccc(/C=C/c2ccccc2)cc1 have growth under 30%?
Response given: false (0)

Challenge: Quick check: does COc1ccc2oc(=O)cc(C3c4ccc([nH]4)C(c4cc(=O)oc5ccc(OC)cc45)c4ccc([nH]4)C(c4cc(=O)oc5ccc(OC)cc45)c4ccc([nH]4)C(c4cc(=O)oc5ccc(OC)cc45)c4ccc3[nH]4)c2c1 (stereo unspecified) have growth under 30%?
Response given: true (1)

These entries and their values trace back to PubChem BioAssay (NCI).
